- TESTED_SYSTEM: MAGL (Mus musculus (Mouse))
- Sequence (O35678 whole entry): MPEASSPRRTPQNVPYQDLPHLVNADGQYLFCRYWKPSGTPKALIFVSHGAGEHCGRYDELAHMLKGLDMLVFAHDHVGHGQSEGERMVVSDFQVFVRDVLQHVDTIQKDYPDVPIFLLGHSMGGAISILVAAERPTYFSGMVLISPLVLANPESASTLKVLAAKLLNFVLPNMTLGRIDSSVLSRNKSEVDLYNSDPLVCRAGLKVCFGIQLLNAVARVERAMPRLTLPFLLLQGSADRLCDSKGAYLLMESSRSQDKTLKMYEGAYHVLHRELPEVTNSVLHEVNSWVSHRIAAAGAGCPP
- ASSAY_COMMENT: In vitro competitive activity-based protein profiling (FP-Rh), mouse MAGL
- Assay type: biochemical
- ASSAY_SETUP: mouse brain membrane proteome, competitive ABPP (Table 7)
- Procedure: In Vitro Competitive Activity-Based Protein Profiling. Proteomes (mouse brain membrane fraction or cell lysates) ([…], 1.0 mg/mL total protein concentration) were preincubated with varying concentrations of inhibitors at 37° C. After 30 min, FP-Rh (1.0 μL, 50 μM in DMSO) was added and the mixture was incubated for another 30 min at 37° C. Reactions were quenched with SDS loading buffer (50 μL—4×) and run on SDS-PAGE.
REPORTED_PROPERTY: IC50

Field: example entries. Status: answers known.
Query :: Fill in: IC50 of O=C(OC(C(F)(F)F)C(F)(F)F)N1CCN(Cc2ccc(N3CCOCC3)cc2)CC1 is ___
Result :: 100 to 1000 nM

Query :: Next record, please: O=C(OC(C(F)(F)F)C(F)(F)F)N1CCN(Cc2ccc(Cl)cc2N2Cc3cccnc3C2)CC1
Result :: < 100 nM

Query :: Next record, please: O=C(OC(C(F)(F)F)C(F)(F)F)N1CCN(Cc2ccc(Cl)cc2N2CCC3(CCOCC3)C2)CC1
Result :: < 100 nM

Query :: Next record, please: O=C(OC(C(F)(F)F)C(F)(F)F)N1CCN(Cc2ccc(N3CCCC3)cc2)CC1
Result :: 100 to 1000 nM

Query :: Next record, please: O=C(OC(C(F)(F)F)C(F)(F)F)N1CCN(Cc2ccc(N3CCOCC3)cc2F)CC1
Result :: 100 to 1000 nM

New cases:
Query :: Fill in: IC50 of O=C(OC(C(F)(F)F)C(F)(F)F)N1CCN(Cc2ccc(C(=O)N3CCC3)cc2Cl)CC1 is ___
Result :: 100 to 1000 nM

Query :: Next record, please: O=C(OC(C(F)(F)F)C(F)(F)F)N1CCN(Cc2ccc(Cl)cc2N2CCC3(CCNC3=O)CC2)CC1
Result :: < 100 nM

Query :: Next record, please: O=C(OC(C(F)(F)F)C(F)(F)F)N1CCN(Cc2cc(-c3ccccc3)on2)CC1 [Example 10b]
Result :: 100 to 1000 nM

Query :: Next record, please: O=C(OC(C(F)(F)F)C(F)(F)F)N1CCN(Cc2cccc(Cl)c2C(=O)N2CCCC2)CC1
Result :: 100 to 1000 nM
